system: TGFb/SMAD Signaling Pathway SBE reporter cell line; experiment: TGFb reporter assay (TGFb/SMAD Signaling Pathway SBE luciferase reporter cell line); format: cell-based; settings: 5-6 h preincubation, then TGFb, 18 h, luciferase luminescence
pEC50: −log10 of the molar value.
quantity: pEC50

- COc1ccccc1CNCc1nc(-c2cccc(C)n2)c(-c2ccc3ncnn3c2)[nH]1: 7.00 to 8.00
- Cc1cccc(-c2nc(CNCc3ccccc3)[nH]c2-c2ccc3nccnc3c2)n1: 8.00 to 10.00
- Cc1cccc(-c2nc(CNCc3ccccc3-c3ccccc3)[nH]c2-c2ccc3ncccc3n2)n1: 7.00 to 8.00
- COc1ccccc1CCNCc1nc(-c2cccc(C)n2)c(-c2ccc3ncccc3n2)[nH]1: 8.00 to 10.00
- Cc1cccc(-c2nc(CNCc3ccccc3)[nH]c2-c2ccc3ncnn3c2)n1: 8.00 to 10.00
- Cc1cccc(-c2nc(CNCc3cc(Cl)ccc3Cl)[nH]c2-c2ccc3ncnn3c2)n1: 7.00 to 8.00
- Cc1cccc(-c2nc(CNCCOc3ccccc3)[nH]c2-c2ccc3ncnn3c2)n1: 8.00 to 10.00
- Cc1cccc(-c2nc(CNCc3ccccc3C(O)C(F)(F)F)[nH]c2-c2ccc3ncnn3c2)n1 (centres unmarked): 8.00 to 10.00
- Cc1cccc(-c2nc(CNCCc3ccccc3)[nH]c2-c2ccc3ncnn3c2)n1: 8.00 to 10.00
- Cc1cccc(-c2nc(CNCc3ccccc3N(C)C)[nH]c2-c2ccc3ncnn3c2)n1: 8.00 to 10.00
- Cc1cccc(-c2nc(CNCc3ccccc3Oc3ccncc3)[nH]c2-c2ccc3ncnn3c2)n1: 5.00 to 6.00
- Cc1cccc(-c2nc(CNCc3ccccc3OC(F)(F)F)[nH]c2-c2ccc3ncnn3c2)n1: 8.00 to 10.00
- Cc1cccc(-c2nc(CNCc3ccc(Cl)cc3)[nH]c2-c2ccc3ncnn3c2)n1: 7.00 to 8.00
- Cc1cccc(-c2nc(CNCc3ccccc3-c3ccccc3F)[nH]c2-c2ccc3ncnn3c2)n1: 8.00 to 10.00
- COc1cccc(CNCc2nc(-c3cccc(C)n3)c(-c3ccc4ncnn4c3)[nH]2)c1C: 8.00 to 10.00
- COc1ccccc1CCNCc1nc(-c2cccc(C)n2)c(-c2ccc3nccnc3c2)[nH]1: 8.00 to 10.00
- Cc1cccc(-c2nc(CNCc3ccc(Cl)c(Cl)c3)[nH]c2-c2ccc3ncnn3c2)n1: 6.00 to 7.00
